# credit: ChEMBL document CHEMBL1157476

assay: Plasma concentration in rat at 10 mg/kg, po after 1 hrs; format: ADME, organism-based; design: dose 10 mg/kg, route oral
observation_type: concentration at 1 h (nM)
I only need the number, in nM, no unit after it.

Item O[C@H]1C[C@H](CN2CC[C@H](c3ccc(F)cc3Cl)[C@@H](O)C2)Cc2cccnc21 : provide concentration at 1 h
30

----------
system: Brain; assay: Drug level in rat brain at 10 mg/kg, po after 1 hrs; format: ADME, organism-based; set-up: dose 10 mg/kg, route oral; details: in vivo
observation_type: Drug uptake
In your response, put the unit directly after the numeric value.

Please report Drug uptake for the following molecule: O[C@H]1C[C@H](CN2CC[C@H](c3ccc(F)cc3Cl)[C@@H](O)C2)Cc2cccnc21
0.172 nmol/g
